Every entry's value here was drawn from patent US20120010075A1.

- System: Leptosphaeria nodorum (LEPTNO)
- assay.explanation: In vitro fungitoxicity of hydrazones with and without copper towards Leptosphaeria nodorum (Example 26)
- Format: cell-based
- condition.notes: Parastagonospora nodorum, 72 h, compound 0.05 μg/mL, copper-minus medium, 72 h at 25° C.; read-out: LEPTNO % Inhn. Minus Copper Observed
# cutoff 7% applies to inhibition of growth at 0.05 µg/mL; >= gives Satisfied, < gives Not satisfied

Here's what some known entries look like.
INSERT INTO results (smiles_data, label_class) VALUES
  ('C/C(=N\NC(=O)c1cc(C)cc(C)c1)c1ccccc1O', 'Not satisfied'),
  ('O=C(N/N=C/c1cc(Cl)cc(Cl)c1O)c1cccc(C(F)(F)F)c1', 'Satisfied'),
  ('O=C(N/N=C/c1cc(Cl)ccc1O)c1cccc(Br)c1', 'Satisfied'),
  ('COc1cc(Br)cc(/C=N/NC(=O)c2ccc(C)cc2)c1O', 'Satisfied'),
  ('COc1ccc(/C(C)=N/NC(=O)c2ccccc2Cl)c(O)c1', 'Not satisfied');

Incoming: # bool: inhibition of growth at 0.05 µg/mL of "C/C(=N\NC(=O)c1ccc(C(F)(F)F)cc1)c1ccccc1O" >= 7%
Outgoing: Not satisfied

Incoming: Same read-out for "C/C(=N\NC(=O)c1ccc(Cl)cc1)c1ccccc1O" ?
Outgoing: Not satisfied

Incoming: Same read-out for "C/C(=N\NC(=O)c1ccccc1)c1ccc(Cl)cc1O" ?
Outgoing: Not satisfied

###

- Tested on: Leptosphaeria nodorum (LEPTNO)
- assay.explanation: In vitro fungitoxicity of hydrazones with and without copper towards Leptosphaeria nodorum (Example 26)
- Format: cell-based
- condition.notes: copper-plus medium (CuCl2 10 μM); test compound Concn. 0.05 μg/mL; 72 h at 25° C.
result.type: LEPTNO % Inhn. Plus Copper Observed (%)
// note: answer is a bare numeric in %

INSERT INTO results (smiles_data, reading) VALUES
  ('C/C(=N\NC(=O)c1ccccc1Cl)c1cc(Br)cc(Br)c1O', 93.9),
  ('O=C(N/N=C/c1c(Cl)ccc(Cl)c1O)c1cccc(F)c1', 97.9),
  ('COc1ccc(C(=O)N/N=C(\C)c2c(O)cc(OC)cc2OC)cc1', 15.8),
  ('O=C(N/N=C/c1ccc(Cl)cc1O)c1ccc(F)cc1', 97.5);

Incoming: Would you kindly share the measured LEPTNO % Inhn. Plus Copper Observed for "C/C(=N\NC(=O)c1ccccc1Cl)c1cc(C(F)(F)F)ccc1O" ?
Outgoing: 97.3

###

Listed here are compounds together with their documented LEPTNO % Inhn. Plus Copper Observed.
- Test system: Leptosphaeria nodorum (LEPTNO)
- assay.explanation: In vitro fungitoxicity of hydrazones with and without copper towards Leptosphaeria nodorum (Example 26)
- Type: cell-based
- condition.notes: copper-plus medium (CuCl2 10 μM); test compound Concn. 0.05 μg/mL; 72 h at 25° C.
// note: answer is a bare numeric in %

INSERT INTO measurements (smiles_data, result_type, uom, reading) VALUES
  ('C/C(=N\NC(=O)c1cccc(C)c1)c1cc(F)cc(F)c1O', 'LEPTNO % Inhn. Plus Copper Observed', '%', 98.3),
  ('Cc1cccc(C(=O)N/N=C/c2cccc(Cl)c2O)c1', 'LEPTNO % Inhn. Plus Copper Observed', '%', 98.0);

Incoming: Would you kindly share the measured LEPTNO % Inhn. Plus Copper Observed for "O=C(N/N=C/c1cc(C(F)(F)F)cc(C(F)(F)F)c1O)c1ccc(Cl)cc1" ?
Outgoing: 98.0

Incoming: Same read-out for "C/C(=N\NC(=O)c1ccccc1O)c1cc(Cl)ccc1O" ?
Outgoing: 97.6

Incoming: Same read-out for "O=C(N/N=C/c1cc(Cl)cc(C(F)(F)F)c1O)c1cccc(Cl)c1" ?
Outgoing: 98.3

Incoming: Same read-out for "O=C(N/N=C/c1cc(Cl)ccc1O)c1ccc(F)cc1" ?
Outgoing: 96.6

Incoming: Same read-out for "Cc1ccc(C(=O)N/N=C/c2cc(Cl)ccc2O)c(O)c1" ?
Outgoing: 95.4
